The entries below are paired with their reported Hemolytic activity (%).
# Test system: horse erythrocytes
# CONDITION_DESCRIPTION: red cells of horse, 50 µM

STRUCTURE_SMILES: CCCCCCCCCCCC(=O)NCCCC[C@H](NC(=O)[C@H](CCCCN)NC(=O)[C@H](CCCCN)NC(C)=O)C(=O)N[C@H](Cc1ccccc1)C(=O)N[C@@H](CCCCN)C(=O)N[C@@H](CCCCN)C(=O)N[C@H](C(=O)N[C@@H](CC(C)C)C(=O)N[C@@H](CCCCN)C(=O)N[C@@H](Cc1ccc(O)cc1)C(=O)N[C@@H](CC(C)C)C(N)=O)[C@@H](C)CC
Hemolytic activity (%): 99%
--
STRUCTURE_SMILES: CCCCCC(=O)NCCCC[C@H](NC(=O)[C@H](CCCCN)NC(=O)[C@H](CCCCN)NC(=O)[C@@H](Cc1ccccc1)NC(=O)[C@H](CC(C)C)NC(=O)[C@H](CCCCN)NC(=O)[C@H](CCCCN)NC(C)=O)C(=O)N[C@@H](CC(C)C)C(=O)N[C@@H](CCCCN)C(=O)N[C@@H](Cc1ccc(O)cc1)C(=O)N[C@@H](CC(C)C)C(N)=O
Hemolytic activity (%): 0%
--
STRUCTURE_SMILES: CCCC(=O)NCCCC[C@@H](NC(=O)[C@H](CC(C)C)NC(=O)[C@H](CCCCN)NC(=O)[C@H](CCCCN)NC(C)=O)C(=O)N[C@@H](CCCCN)C(=O)N[C@@H](CCCCN)C(=O)N[C@H](C(=O)N[C@@H](CC(C)C)C(=O)N[C@H](C(=O)N[C@@H](Cc1ccc(O)cc1)C(=O)N[C@@H](CC(C)C)C(N)=O)[C@@H](C)CC)[C@@H](C)CC
Hemolytic activity (%): 0%

---

The entries below are paired with their reported Hemolytic activity (%).
# Tested on: horse erythrocytes
# CONDITION_DESCRIPTION: red cells of horse, 50 µM
Square brackets hold non-standard residues; d marks the D form. Peptide text beside a SMILES is read from it. * marks the point of attachment. Hexanoyl = CCCCCC(=O)*; Butyryl = CCCC(=O)*

MOLECULE: CCCC(=O)NCCCC[C@H](NC(=O)[C@H](CCCCN)NC(=O)[C@@H](Cc1ccccc1)NC(=O)[C@H](CC(C)C)NC(=O)[C@H](CCCCN)NC(=O)[C@H](CCCCN)NC(C)=O)C(=O)N[C@H](C(=O)N[C@@H](CC(C)C)C(=O)N[C@@H](CCCCN)C(=O)N[C@@H](Cc1ccc(O)cc1)C(=O)N[C@@H](CC(C)C)C(N)=O)[C@@H](C)CC
UNIT_TEXT: %
Hemolytic activity (%): 7
--
MOLECULE: CCCCCC(=O)NCCCC[C@H](NC(=O)[C@H](CCCCN)NC(=O)[C@H](CC(C)C)NC(=O)[C@@H](NC(=O)[C@H](CCCCN)NC(=O)[C@H](CCCCN)NC(=O)[C@H](Cc1ccccc1)NC(=O)[C@H](CC(C)C)NC(=O)[C@H](CCCCN)NC(=O)[C@H](CCCCN)NC(C)=O)[C@@H](C)CC)C(=O)N[C@@H](CC(C)C)C(N)=O [BP377, Ac-KKLFKKILKK(COC5H11)L-NH2] (Ac-KKLFKKILKK(Hexanoyl)L-NH2)
UNIT_TEXT: %
Hemolytic activity (%): 71
--
MOLECULE: CCCCCC(=O)NCCCC[C@H](NC(=O)[C@@H](NC(=O)[C@H](CCCCN)NC(=O)[C@H](CCCCN)NC(=O)[C@H](Cc1ccccc1)NC(=O)[C@H](CC(C)C)NC(=O)[C@H](CCCCN)NC(=O)[C@H](CCCCN)NC(C)=O)[C@@H](C)CC)C(=O)N[C@@H](CCCCN)C(=O)N[C@@H](Cc1ccc(O)cc1)C(=O)N[C@@H](CC(C)C)C(N)=O [BP375, Ac-KKLFKKIK(COC5H11)KYL-NH2] (Ac-KKLFKKIK(Hexanoyl)KYL-NH2)
UNIT_TEXT: %
Hemolytic activity (%): 23
--
MOLECULE: CCCC(=O)NCCCC[C@H](NC(=O)[C@H](Cc1ccc(O)cc1)NC(=O)[C@H](CCCCN)NC(=O)[C@H](CC(C)C)NC(=O)[C@@H](NC(=O)[C@H](CCCCN)NC(=O)[C@H](CCCCN)NC(=O)[C@@H](Cc1ccccc1)NC(=O)[C@H](CC(C)C)NC(=O)[C@H](CCCCN)NC(=O)[C@H](CCCCN)NC(C)=O)[C@@H](C)CC)C(N)=O [BP496, Ac-KKLfKKILKYK(COC3H7)-NH2] (Ac-KKL[dF]KKILKYK(Butyryl)-NH2)
UNIT_TEXT: %
Hemolytic activity (%): 0
--
MOLECULE: CCCC(=O)NCCCC[C@H](NC(=O)[C@H](CCCCN)NC(=O)[C@H](CCCCN)NC(=O)[C@@H](Cc1ccccc1)NC(=O)[C@H](CC(C)C)NC(=O)[C@H](CCCCN)NC(=O)[C@H](CCCCN)NC(C)=O)C(=O)N[C@@H](CC(C)C)C(=O)N[C@@H](CCCCN)C(=O)N[C@@H](Cc1ccc(O)cc1)C(=O)N[C@@H](CC(C)C)C(N)=O
UNIT_TEXT: %
Hemolytic activity (%): 0
--
MOLECULE: CCCC(=O)NCCCC[C@H](NC(=O)[C@H](CCCCN)NC(=O)[C@H](CC(C)C)NC(=O)[C@@H](NC(=O)[C@H](CCCCN)NC(=O)[C@H](CCCCN)NC(=O)[C@H](Cc1ccccc1)NC(=O)[C@H](CC(C)C)NC(=O)[C@H](CCCCN)NC(=O)[C@H](CCCCN)NC(C)=O)[C@@H](C)CC)C(=O)N[C@@H](CC(C)C)C(N)=O
UNIT_TEXT: %
Hemolytic activity (%): 9
--
MOLECULE: CCCCCCCCCCCC(=O)NCCCC[C@H](NC(=O)[C@@H](NC(=O)[C@H](CCCCN)NC(=O)[C@H](CCCCN)NC(=O)[C@@H](Cc1ccccc1)NC(=O)[C@H](CC(C)C)NC(=O)[C@H](CCCCN)NC(=O)[C@H](CCCCN)NC(C)=O)[C@@H](C)CC)C(=O)N[C@@H](CCCCN)C(=O)N[C@@H](Cc1ccc(O)cc1)C(=O)N[C@@H](CC(C)C)C(N)=O
UNIT_TEXT: %
Hemolytic activity (%): 100
--
MOLECULE: CCCC(=O)NCCCC[C@@H](NC(=O)[C@H](CC(C)C)NC(=O)[C@H](CCCCN)NC(=O)[C@H](CCCCN)NC(C)=O)C(=O)N[C@@H](CCCCN)C(=O)N[C@@H](CCCCN)C(=O)N[C@H](C(=O)N[C@@H](CC(C)C)C(=O)N[C@@H](CCCCN)C(=O)N[C@@H](Cc1ccc(O)cc1)C(=O)N[C@@H](CC(C)C)C(N)=O)[C@@H](C)CC
UNIT_TEXT: %
Hemolytic activity (%): 3
--
MOLECULE: CCCC(=O)NCCCC[C@H](NC(=O)[C@H](CCCCN)NC(=O)[C@H](CC(C)C)NC(=O)[C@@H](NC(=O)[C@H](CCCCN)NC(=O)[C@H](CCCCN)NC(=O)[C@H](Cc1c[nH]cn1)NC(=O)[C@H](CC(C)C)NC(=O)[C@H](CCCCN)NC(=O)[C@H](CCCCN)NC(C)=O)[C@@H](C)CC)C(=O)N[C@@H](CC(C)C)C(N)=O [BP501, Ac-KKLHKKILKK(COC3H7)L-NH2] (Ac-KKLHKKILKK(Butyryl)L-NH2)
UNIT_TEXT: %
Hemolytic activity (%): 2
--
MOLECULE: CCCC(=O)N[C@@H](CCCCN)C(=O)N[C@@H](CCCCN)C(=O)N[C@@H](CC(C)C)C(=O)N[C@H](Cc1ccccc1)C(=O)N[C@@H](CCCCN)C(=O)N[C@@H](CCCCN)C(=O)N[C@H](C(=O)N[C@@H](CC(C)C)C(=O)N[C@@H](CCCCN)C(=O)N[C@@H](Cc1ccc(O)cc1)C(=O)N[C@@H](CC(C)C)C(N)=O)[C@@H](C)CC
UNIT_TEXT: %
Hemolytic activity (%): 3

---

# System: tobacco leaves
# CONDITION_DESCRIPTION: 150 µM; after 48 h
Square brackets hold non-standard residues; d marks the D form. Peptide text beside a SMILES is read from it. * marks the point of attachment. Hexanoyl = CCCCCC(=O)*; Butyryl = CCCC(=O)*
The entries below are paired with their reported Phytotoxicity: diameter of the lesion.
READOUT: Phytotoxicity: diameter of the lesion (mm)

COMPOUND: CCCC(=O)NCCCC[C@@H](NC(=O)[C@H](CC(C)C)NC(=O)[C@H](CCCCN)NC(=O)[C@H](CCCCN)NC(C)=O)C(=O)N[C@@H](CCCCN)C(=O)N[C@@H](CCCCN)C(=O)N[C@H](C(=O)N[C@@H](CC(C)C)C(=O)N[C@@H](CCCCN)C(=O)N[C@@H](Cc1ccc(O)cc1)C(=O)N[C@@H](CC(C)C)C(N)=O)[C@@H](C)CC [BP550, Ac-KKLk(COC3H7)KKILKYL-NH2]
UNIT_TEXT: mm
OBSERVED_VALUE: 5
//
COMPOUND: CCCC(=O)NCCCC[C@H](NC(=O)[C@H](CCCCN)NC(=O)[C@H](CCCCN)NC(C)=O)C(=O)N[C@H](Cc1ccccc1)C(=O)N[C@@H](CCCCN)C(=O)N[C@@H](CCCCN)C(=O)N[C@@H](CCCCN)C(=O)N[C@@H](CC(C)C)C(=O)N[C@@H](CCCCN)C(=O)N[C@@H](Cc1ccc(O)cc1)C(=O)N[C@@H](CC(C)C)C(N)=O [BP546, Ac-KKK(COC3H7)fKKKLKYL-NH2] (Ac-KKK(Butyryl)[dF]KKKLKYL-NH2)
UNIT_TEXT: mm
OBSERVED_VALUE: 0
//
COMPOUND: CCCC(=O)NCCCC[C@H](NC(=O)[C@H](CCCCN)NC(=O)[C@H](CC(C)C)NC(=O)[C@@H](NC(=O)[C@H](CCCCN)NC(=O)[C@H](CCCCN)NC(=O)[C@H](Cc1c[nH]cn1)NC(=O)[C@H](CC(C)C)NC(=O)[C@H](CCCCN)NC(=O)[C@H](CCCCN)NC(C)=O)[C@@H](C)CC)C(=O)N[C@@H](CC(C)C)C(N)=O [BP501, Ac-KKLHKKILKK(COC3H7)L-NH2] (Ac-KKLHKKILKK(Butyryl)L-NH2)
UNIT_TEXT: mm
OBSERVED_VALUE: 0
//
COMPOUND: CCCCCCCCCCCC(=O)NCCCC[C@H](NC(=O)[C@H](CCCCN)NC(C)=O)C(=O)N[C@@H](CC(C)C)C(=O)N[C@@H](Cc1ccccc1)C(=O)N[C@@H](CCCCN)C(=O)N[C@@H](CCCCN)C(=O)N[C@H](C(=O)N[C@@H](CC(C)C)C(=O)N[C@@H](CCCCN)C(=O)N[C@@H](Cc1ccc(O)cc1)C(=O)N[C@@H](CC(C)C)C(N)=O)[C@@H](C)CC [BP393, Ac-KK(COC11H23)LFKKILKYL-NH2]
UNIT_TEXT: mm
OBSERVED_VALUE: 6
//
COMPOUND: CCCCCC(=O)NCCCC[C@H](NC(=O)[C@@H](NC(=O)[C@H](CCCCN)NC(=O)[C@H](CCCCN)NC(=O)[C@H](Cc1ccccc1)NC(=O)[C@H](CC(C)C)NC(=O)[C@H](CCCCN)NC(=O)[C@H](CCCCN)NC(C)=O)[C@@H](C)CC)C(=O)N[C@@H](CCCCN)C(=O)N[C@@H](Cc1ccc(O)cc1)C(=O)N[C@@H](CC(C)C)C(N)=O [BP375, Ac-KKLFKKIK(COC5H11)KYL-NH2] (Ac-KKLFKKIK(Hexanoyl)KYL-NH2)
UNIT_TEXT: mm
OBSERVED_VALUE: 10
//
COMPOUND: CCCC(=O)NCCCC[C@H](NC(=O)[C@@H](NC(=O)[C@H](CCCCN)NC(=O)[C@H](CCCCN)NC(=O)[C@@H](Cc1ccccc1)NC(=O)[C@H](CC(C)C)NC(=O)[C@H](CCCCN)NC(=O)[C@H](CCCCN)NC(C)=O)[C@@H](C)CC)C(=O)N[C@@H](CCCCN)C(=O)N[C@@H](Cc1ccc(O)cc1)C(=O)N[C@@H](CC(C)C)C(N)=O [BP474, Ac-KKLfKKIK(COC3H7)KYL-NH2]
UNIT_TEXT: mm
OBSERVED_VALUE: 2
//
COMPOUND: CCCCCC(=O)NCCCC[C@H](NC(=O)[C@H](CCCCN)NC(=O)[C@H](CC(C)C)NC(=O)[C@@H](NC(=O)[C@H](CCCCN)NC(=O)[C@H](CCCCN)NC(=O)[C@H](Cc1ccccc1)NC(=O)[C@H](CC(C)C)NC(=O)[C@H](CCCCN)NC(=O)[C@H](CCCCN)NC(C)=O)[C@@H](C)CC)C(=O)N[C@@H](CC(C)C)C(N)=O [BP377, Ac-KKLFKKILKK(COC5H11)L-NH2] (Ac-KKLFKKILKK(Hexanoyl)L-NH2)
UNIT_TEXT: mm
OBSERVED_VALUE: 11
//
COMPOUND: CCCC(=O)NCCCC[C@H](NC(=O)[C@@H](Cc1ccccc1)NC(=O)[C@H](CC(C)C)NC(=O)[C@H](CCCCN)NC(=O)[C@H](CCCCN)NC(C)=O)C(=O)N[C@@H](CCCCN)C(=O)N[C@H](C(=O)N[C@@H](CC(C)C)C(=O)N[C@@H](CCCCN)C(=O)N[C@@H](Cc1ccc(O)cc1)C(=O)N[C@@H](CC(C)C)C(N)=O)[C@@H](C)CC [BP498, Ac-KKLfK(COC3H7)KILKYL-NH2]
UNIT_TEXT: mm
OBSERVED_VALUE: 7
//
COMPOUND: CCCC(=O)NCCCC[C@H](NC(=O)[C@@H](NC(=O)[C@H](CCCCN)NC(=O)[C@H](CCCCN)NC(=O)[C@H](Cc1ccccc1)NC(=O)[C@H](CC(C)C)NC(=O)[C@H](CCCCN)NC(=O)[C@H](CCCCN)NC(C)=O)[C@@H](C)CC)C(=O)N[C@@H](CCCCN)C(=O)N[C@@H](Cc1ccc(O)cc1)C(=O)N[C@@H](CC(C)C)C(N)=O [BP387, Ac‐KKLFKKIK(COC3H7)KYL‐NH2]
UNIT_TEXT: mm
OBSERVED_VALUE: 8
//
COMPOUND: CCCC(=O)NCCCC[C@H](NC(=O)[C@H](CCCCN)NC(=O)[C@H](CCCCN)NC(C)=O)C(=O)N[C@H](Cc1ccccc1)C(=O)N[C@@H](CCCCN)C(=O)N[C@@H](CCCCN)C(=O)N[C@H](C(=O)N[C@@H](CC(C)C)C(=O)N[C@@H](CCCCN)C(=O)N[C@@H](Cc1ccc(O)cc1)C(=O)N[C@@H](CC(C)C)C(N)=O)[C@@H](C)CC [BP549, Ac-KKK(COC3H7)fKKILKYL-NH2]
UNIT_TEXT: mm
OBSERVED_VALUE: 5
